# assay-system: Nuclear receptor subfamily 1 group D member 1 (Homo sapiens)
# protocol: modulators of Rev-erb alpha DNA binding, dose response, biochemical, FITC-DNA, fluorescence polarization (AID 1259321)
The source made the active and inactive calls.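 The calls were made as follows: active = half-maximal concentration for changing protein binding to DNA, from the fitted dose curve, below 10 micromolar; inactive = the rest.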
value-kind: IC50

- COC(=O)c1ccc(N/C=C\C(=O)c2ccc3c(c2)OCO3)cc1: 7.08 µM
- COc1ccc(-c2oc3ccccc3c(=O)c2OC(=O)c2ccc(C)cc2)cc1: inactive
- COc1cccc(NC(=O)CSc2nc3ncc(Br)cc3[nH]2)c1: 1.3 µM
- COc1cc2c(cc1OC)CN(C(=O)CSc1nc(N)c(C#N)cc1C#N)CC2: inactive
- O=c1cc(-c2ccccc2Cl)oc2c(NS(=O)(=O)c3cccs3)ccc(O)c12: inactive

Enquiry: Provide IC50, tested on Nuclear receptor subfamily 1 group D member 1 (Homo sapiens), for CN1CCS/C1=C/C=C1\SC(=S)N(CC(=O)O)C1=O .
Return: 1.12 µM

Enquiry: Provide IC50, tested on Nuclear receptor subfamily 1 group D member 1 (Homo sapiens), for COc1cccc(CNC(=O)C[C@H]2CC[C@H]3[C@@H](COc4ccc(NC(=O)c5cccs5)cc4C(=O)N3C)O2)c1 .
Return: 7.17 µM

Enquiry: Provide IC50, tested on Nuclear receptor subfamily 1 group D member 1 (Homo sapiens), for CCCN=C(C)c1c(-c2ccccc2)[nH]n(-c2nc3ccccc3s2)c1=O .
Return: 0.917 µM

Enquiry: Provide IC50, tested on Nuclear receptor subfamily 1 group D member 1 (Homo sapiens), for CCCCc1nc2sc3c(SCCN(C)C)ncnc3c2c2c1CCC2 .
Return: 7.04 µM

Enquiry: Provide IC50, tested on Nuclear receptor subfamily 1 group D member 1 (Homo sapiens), for Brc1nc(-c2ccccc2)nc(-c2ccccc2)c1Br .
Return: > 40 µM (inactive)

Enquiry: Provide IC50, tested on Nuclear receptor subfamily 1 group D member 1 (Homo sapiens), for O=C(CCc1c[nH]c2ccccc12)NCCc1ccc2c(c1)OCCO2 .
Return: 1.08 µM

Enquiry: Provide IC50, tested on Nuclear receptor subfamily 1 group D member 1 (Homo sapiens), for NS(=O)(=O)c1ccc(CCNc2nc3c(-c4cccc(F)c4)nnn3c3ccccc23)cc1 .
Return: > 40 µM (inactive)

Enquiry: Provide IC50, tested on Nuclear receptor subfamily 1 group D member 1 (Homo sapiens), for COC(=O)c1ccc(C(=O)OC)c(NC(=O)N2c3ccccc3Sc3ccccc32)c1 .
Return: > 40 µM (inactive)

Enquiry: Provide IC50, tested on Nuclear receptor subfamily 1 group D member 1 (Homo sapiens), for O=C(COc1ncnc2ccc(Br)cc12)NCc1ccc2c(c1)OCO2 .
Return: 1.94 µM

Enquiry: Provide IC50, tested on Nuclear receptor subfamily 1 group D member 1 (Homo sapiens), for CC1(C)Cc2c(c(N3CCOCC3)nc3sc4c(NN)ncnc4c23)CS1 .
Return: > 40 µM (inactive)

Enquiry: Provide IC50, tested on Nuclear receptor subfamily 1 group D member 1 (Homo sapiens), for O=S(=O)(N1CCCCC1)N1CCN(CC(O)COc2ccc3cc(Br)ccc3c2)CC1 (configuration not stated) .
Return: > 40 µM (inactive)

Enquiry: Provide IC50, tested on Nuclear receptor subfamily 1 group D member 1 (Homo sapiens), for Cc1ccc(CNc2nc3ccccc3n3nnnc23)cc1 .
Return: inactive

Enquiry: Provide IC50, tested on Nuclear receptor subfamily 1 group D member 1 (Homo sapiens), for COc1ccc(-c2cc(-c3cccnc3)c(C#N)c(N)n2)cc1 .
Return: 4.4 µM

Enquiry: Provide IC50, tested on Nuclear receptor subfamily 1 group D member 1 (Homo sapiens), for CC(=O)Oc1ccc(/C=N\NC(=O)c2cc3c(ccc4ccccc43)o2)cc1 .
Return: inactive

* * *

# assay-system: Nuclear receptor subfamily 1 group D member 1 (Homo sapiens)
# protocol: modulators of Rev-erb alpha DNA binding, dose response, biochemical, FITC-DNA, fluorescence polarization (AID 1259321)
The source made the active and inactive calls.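 Rule for the calls: active = half-maximal concentration for changing protein binding to DNA, from the fitted dose curve, below 10 micromolar; inactive = the rest.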
value-kind: IC50

• CCOC(=O)c1ccc(CNC(=O)CSc2nc(NC(=O)c3ccccc3)c3c(C)c(C)oc3n2)cc1 = inactive
• O=C(COC(=O)c1cc(Br)ccc1O)Nc1cccnc1Cl = 2.58 µM
• COc1ccc(OC)c(-c2csc(NC(=O)c3ccc4c(c3)OCO4)n2)c1 = 3.24 µM
• O=C(Nc1ccccc1C(F)(F)F)OCCN1C(=O)CCC12CCC(c1ccccc1)CC2 (stereo unspecified) = 7.99 µM
• Cc1cc(OC(C)C(=O)NCc2ccccn2)c2c(C)c(Cc3ccccc3)c(=O)oc2c1 (stereo unspecified) = 2.52 µM

Enquiry: Please supply the value of reported IC50 for the item Cc1c(Br)ccc(NC(=O)Cn2nc(-c3cccs3)ccc2=O)c1C
Return: 4.84 µM

Enquiry: Please supply the value of reported IC50 for the item CC[n+]1c(/C=C/c2c[nH]c3ccccc23)ccc2cc(C)ccc21
Return: inactive

Enquiry: Please supply the value of reported IC50 for the item O=C(CSc1ncnc2c1oc1ccccc12)Nc1cccc(F)c1
Return: 2.51 µM

* * *

# assay-system: Nuclear receptor subfamily 1 group D member 1 (Homo sapiens)
# protocol: modulators of Rev-erb alpha DNA binding, dose response, biochemical, FITC-DNA, fluorescence polarization (AID 1259321)
Active and inactive are the calls of the source.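 The calls were made as follows: active = half-maximal concentration for changing protein binding to DNA, from the fitted dose curve, below 10 micromolar; inactive = the rest.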
Permitted responses: active, inactive

Worked cases, answers included:
* O=[N+]([O-])c1ccc(N2CCCC2)c2ccncc12 | inactive
* Cc1ccc(S(=O)(=O)c2nnn3c2nc(N2CCN(c4ccccn4)CC2)c2ccccc23)cc1C | active
* Cc1cccc(NC(=O)CSc2ncnc3c2oc2ccccc23)c1 | active
* CCCN1C(=O)S/C(=C/c2ccc(N3CCOCC3)o2)C1=O | active
* COc1cc(C(=O)Nc2cccc(-c3nc4cc(C)ccc4o3)c2)cc(OC)c1OC | active

Enquiry: Short answer needed: outcome of this test for Cc1cc(C)cc(N2CC(O)=C(c3nc4ccccc4c(=O)[nH]3)C2=N)c1 ?
Return: active

Enquiry: Short answer needed: outcome of this test for COc1cc(/C=C(\C#N)c2nc3ccccc3o2)ccc1O ?
Return: active

Enquiry: Short answer needed: outcome of this test for CCN(c1ccccc1C)S(=O)(=O)c1cc2c3c(c1)CCC(=O)N3CCC2 ?
Return: inactive

Enquiry: Short answer needed: outcome of this test for O=c1oc2ccccc2c(NC(c2ccccc2)c2ccccc2)c1[N+](=O)[O-] ?
Return: inactive

Enquiry: Short answer needed: outcome of this test for C=CCn1c(=NC(=O)c2cccs2)sc2cc(NC(C)=O)ccc21 ?
Return: inactive

Enquiry: Short answer needed: outcome of this test for COc1ccc(-n2nc(C(=O)NCC(=O)Nc3ccccn3)c3ccccc3c2=O)cc1Cl ?
Return: active

Enquiry: Short answer needed: outcome of this test for CN(C)c1ccc(N=Nc2ccccc2C(=O)OCC(=O)N2CCCC2)cc1 ?
Return: active

Enquiry: Short answer needed: outcome of this test for Cc1nc(N2CCN(c3ccccn3)CC2)c2c(C)c(C(=O)N3CCN(c4cccc(Cl)c4)CC3)sc2n1 ?
Return: inactive

Enquiry: Short answer needed: outcome of this test for CCCCOc1ccc(N(CC(=O)NC2CCCCC2)C(=O)c2snc(C(N)=O)c2N)cc1 ?
Return: inactive

Enquiry: Short answer needed: outcome of this test for O=S(=O)([N-]c1nc2ccccc2nc1-n1cc[n+](Cc2ccccc2)c1)c1ccc(Br)cc1 ?
Return: active

Enquiry: Short answer needed: outcome of this test for Cc1ccc(NC(=S)Nc2nc(CC(=O)Nc3ccccc3)cs2)cc1 ?
Return: active

Enquiry: Short answer needed: outcome of this test for CCOc1ccc(/C(CC)=N/NC(=O)C2(C)CC2(Br)Br)cc1 (stereo unspecified) ?
Return: active

Enquiry: Short answer needed: outcome of this test for COc1ccc2cc(C(=O)COC(=O)COc3ccc4c(C)cc(=O)oc4c3)ccc2c1 ?
Return: active

Enquiry: Short answer needed: outcome of this test for Cc1ccc(Oc2nccc(-c3ccc(Cl)cc3)n2)cc1 ?
Return: active

Enquiry: Short answer needed: outcome of this test for CN(C)c1ccc(N=Nc2ccccc2C(=O)OCC(=O)N2CCCCCC2)cc1 ?
Return: inactive

Enquiry: Short answer needed: outcome of this test for COc1ccc(C(=O)Nc2nnc(Cc3cccs3)s2)cc1OC ?
Return: inactive

* * *

# assay-system: Nuclear receptor subfamily 1 group D member 1 (Homo sapiens) (UniProt P20393)
# Sequence (P20393 whole entry, looked up): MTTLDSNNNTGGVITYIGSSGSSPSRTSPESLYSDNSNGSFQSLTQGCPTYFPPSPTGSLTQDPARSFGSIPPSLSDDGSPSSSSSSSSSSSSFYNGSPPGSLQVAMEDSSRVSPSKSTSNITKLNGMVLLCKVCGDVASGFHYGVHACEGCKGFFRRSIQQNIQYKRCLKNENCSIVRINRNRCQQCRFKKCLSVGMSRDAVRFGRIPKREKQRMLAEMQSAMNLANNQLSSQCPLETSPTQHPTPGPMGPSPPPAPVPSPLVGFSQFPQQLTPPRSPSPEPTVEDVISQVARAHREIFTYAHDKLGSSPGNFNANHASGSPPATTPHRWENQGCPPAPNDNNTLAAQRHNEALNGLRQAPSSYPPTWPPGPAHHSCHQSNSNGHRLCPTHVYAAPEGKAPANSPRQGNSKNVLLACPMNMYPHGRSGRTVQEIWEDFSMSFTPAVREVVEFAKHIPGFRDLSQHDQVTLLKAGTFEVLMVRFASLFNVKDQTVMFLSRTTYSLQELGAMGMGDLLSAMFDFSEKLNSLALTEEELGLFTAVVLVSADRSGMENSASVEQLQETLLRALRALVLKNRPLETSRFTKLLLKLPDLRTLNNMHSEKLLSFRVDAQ
# protocol: modulators of Rev-erb alpha DNA binding, dose response, biochemical, FITC-DNA, fluorescence polarization (AID 1259321)
Activity calls are given as the source filed them.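 The calls were made as follows: active = half-maximal concentration for changing protein binding to DNA, from the fitted dose curve, below 10 micromolar; inactive = the rest.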
Permitted responses: y = active, n = inactive

Worked cases, answers included:
* Cc1nc(SCc2nc3c(F)cccc3[nH]2)c2oc3ccccc3c2n1 | n
* O=C(N=c1ccn(-c2nc3ccccc3nc2NS(=O)(=O)c2ccc(Cl)cc2)cc1)c1cccs1 | n

Enquiry: Short answer needed: outcome of this test for Cc1cc2nc3c(=O)n(CCc4ccccc4)c(=O)[nH]c3nc2cc1N ?
Return: n

Enquiry: Short answer needed: outcome of this test for CCOC(=O)CSc1nc2cc(OCC)ccc2cc1C#N ?
Return: y

Enquiry: Short answer needed: outcome of this test for COc1ccc(C(=O)/C(C#N)=N/Nc2ccc([N+](=O)[O-])cc2)cc1 ?
Return: n

Enquiry: Short answer needed: outcome of this test for CCC(C)(C)c1ccc(OCCCC[n+]2cccc(C)c2)c(C(C)(C)CC)c1 ?
Return: y

Enquiry: Short answer needed: outcome of this test for COc1ccc(C(=O)Nc2nc3ccc4nc(C)sc4c3s2)cc1 ?
Return: y

Enquiry: Short answer needed: outcome of this test for Cc1cc(C)n2nc(-c3ccc(Cl)cc3)cc2n1 ?
Return: y

Enquiry: Short answer needed: outcome of this test for CCCC1(c2ccccc2)NC(=O)N(CC(=O)Nc2sc(-c3ccccc3)cc2C(=O)OCC)C1=O (stereo not given) ?
Return: n

Enquiry: Short answer needed: outcome of this test for N#Cc1c(N)nc(SCC(=O)NCCc2ccccc2)c(C#N)c1-c1cccs1 ?
Return: y
